Measured EC50, listed per entry for reference.
Biological target: T790M/L858R/C797S transformed Ba/F3 cells (Homo sapiens, UniProt P00533, T790M/C797S/L858R, cells depend on it)
Construct: The constructs were shuttled into the retroviral vector JP 1540 using the BD Creator™ System (BD Biosciences)
Sequence (P00533 whole entry T790M/C797S/L858R): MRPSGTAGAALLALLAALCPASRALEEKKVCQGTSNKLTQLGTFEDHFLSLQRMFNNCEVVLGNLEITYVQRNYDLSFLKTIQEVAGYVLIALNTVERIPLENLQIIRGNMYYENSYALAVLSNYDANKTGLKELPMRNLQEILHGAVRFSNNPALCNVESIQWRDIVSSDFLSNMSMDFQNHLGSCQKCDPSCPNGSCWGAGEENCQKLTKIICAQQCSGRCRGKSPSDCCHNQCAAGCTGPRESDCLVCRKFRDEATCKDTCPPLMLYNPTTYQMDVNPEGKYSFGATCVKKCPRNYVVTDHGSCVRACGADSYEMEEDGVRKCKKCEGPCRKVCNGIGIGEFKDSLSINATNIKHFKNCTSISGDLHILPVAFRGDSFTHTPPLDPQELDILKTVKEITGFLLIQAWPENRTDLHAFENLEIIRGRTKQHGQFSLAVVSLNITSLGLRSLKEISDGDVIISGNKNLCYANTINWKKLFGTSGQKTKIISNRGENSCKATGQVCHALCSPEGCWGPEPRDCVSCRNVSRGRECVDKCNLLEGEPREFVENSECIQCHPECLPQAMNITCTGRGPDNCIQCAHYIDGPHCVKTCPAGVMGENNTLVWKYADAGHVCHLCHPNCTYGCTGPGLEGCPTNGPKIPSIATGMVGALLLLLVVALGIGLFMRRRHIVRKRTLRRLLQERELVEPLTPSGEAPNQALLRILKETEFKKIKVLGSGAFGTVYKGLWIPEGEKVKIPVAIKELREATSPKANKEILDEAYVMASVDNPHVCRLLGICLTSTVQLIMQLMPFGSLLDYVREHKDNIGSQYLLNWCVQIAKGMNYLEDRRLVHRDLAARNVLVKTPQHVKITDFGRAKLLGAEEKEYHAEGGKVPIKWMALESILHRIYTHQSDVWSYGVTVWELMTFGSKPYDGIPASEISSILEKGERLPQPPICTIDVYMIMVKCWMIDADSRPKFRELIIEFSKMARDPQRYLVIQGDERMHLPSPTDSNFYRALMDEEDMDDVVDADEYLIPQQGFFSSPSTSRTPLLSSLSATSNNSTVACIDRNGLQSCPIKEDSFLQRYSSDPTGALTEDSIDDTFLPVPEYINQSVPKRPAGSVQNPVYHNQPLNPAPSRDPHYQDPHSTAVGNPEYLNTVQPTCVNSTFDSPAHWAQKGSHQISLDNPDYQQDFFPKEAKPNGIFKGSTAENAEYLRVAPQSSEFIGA
Assay: Ba/F3 cell proliferation (MTS) assay, T790M/L858R/C797S
Format: cell-based, murine
Settings: antiproliferative activity

Completed entries (count: 3):
* O=C1CCC(N2C(=O)c3cccc(NCCOCCOCCN4CCN(c5ccc(-c6ccc7c(c6)C(=O)N(C(C(=O)Nc6nccs6)c6cc(F)ccc6O)C7)cc5)CC4)c3C2=O)C(=O)N1 (stereo not shown) | 1 to 5 µM
* O=C1CCC(N2C(=O)c3cccc(NCCCCCCCCN4CCN(c5ccc(-c6ccc7c(c6)C(=O)N(C(C(=O)Nc6nccs6)c6cc(F)ccc6O)C7)cc5)CC4)c3C2=O)C(=O)N1 (stereo not shown) | > 5 µM
* Cc1ncsc1-c1ccc([C@H](C)NC(=O)[C@@H]2C[C@@H](O)CN2C(=O)[C@@H](NC(=O)CCOCCOCCN2CCN(c3ccc(-c4ccc5c(c4)C(=O)N(C(C(=O)Nc4nccs4)c4ccccc4)C5)cn3)CC2)C(C)(C)C)cc1 (stereo partly shown) | > 5 µM

**Query** Query (compound): Cc1ncsc1-c1ccc([C@H](C)NC(=O)[C@@H]2C[C@@H](O)CN2C(=O)[C@@H](NC(=O)CCOCCOCCOCCN2CCN(c3ccc(-c4ccc5c(c4)C(=O)N(C(C(=O)Nc4nccs4)c4ccccc4)C5)cn3)CC2)C(C)(C)C)cc1 (stereo partly shown) ; field requested: EC50
**Result** > 5 µM

----------
Biological target: T790M/L858R transformed Ba/F3 cells (Homo sapiens, UniProt P00533, T790M/L858R, cells depend on it)
Construct: The constructs were shuttled into the retroviral vector JP 1540 using the BD Creator™ System (BD Biosciences)
Sequence (P00533 whole entry T790M/L858R): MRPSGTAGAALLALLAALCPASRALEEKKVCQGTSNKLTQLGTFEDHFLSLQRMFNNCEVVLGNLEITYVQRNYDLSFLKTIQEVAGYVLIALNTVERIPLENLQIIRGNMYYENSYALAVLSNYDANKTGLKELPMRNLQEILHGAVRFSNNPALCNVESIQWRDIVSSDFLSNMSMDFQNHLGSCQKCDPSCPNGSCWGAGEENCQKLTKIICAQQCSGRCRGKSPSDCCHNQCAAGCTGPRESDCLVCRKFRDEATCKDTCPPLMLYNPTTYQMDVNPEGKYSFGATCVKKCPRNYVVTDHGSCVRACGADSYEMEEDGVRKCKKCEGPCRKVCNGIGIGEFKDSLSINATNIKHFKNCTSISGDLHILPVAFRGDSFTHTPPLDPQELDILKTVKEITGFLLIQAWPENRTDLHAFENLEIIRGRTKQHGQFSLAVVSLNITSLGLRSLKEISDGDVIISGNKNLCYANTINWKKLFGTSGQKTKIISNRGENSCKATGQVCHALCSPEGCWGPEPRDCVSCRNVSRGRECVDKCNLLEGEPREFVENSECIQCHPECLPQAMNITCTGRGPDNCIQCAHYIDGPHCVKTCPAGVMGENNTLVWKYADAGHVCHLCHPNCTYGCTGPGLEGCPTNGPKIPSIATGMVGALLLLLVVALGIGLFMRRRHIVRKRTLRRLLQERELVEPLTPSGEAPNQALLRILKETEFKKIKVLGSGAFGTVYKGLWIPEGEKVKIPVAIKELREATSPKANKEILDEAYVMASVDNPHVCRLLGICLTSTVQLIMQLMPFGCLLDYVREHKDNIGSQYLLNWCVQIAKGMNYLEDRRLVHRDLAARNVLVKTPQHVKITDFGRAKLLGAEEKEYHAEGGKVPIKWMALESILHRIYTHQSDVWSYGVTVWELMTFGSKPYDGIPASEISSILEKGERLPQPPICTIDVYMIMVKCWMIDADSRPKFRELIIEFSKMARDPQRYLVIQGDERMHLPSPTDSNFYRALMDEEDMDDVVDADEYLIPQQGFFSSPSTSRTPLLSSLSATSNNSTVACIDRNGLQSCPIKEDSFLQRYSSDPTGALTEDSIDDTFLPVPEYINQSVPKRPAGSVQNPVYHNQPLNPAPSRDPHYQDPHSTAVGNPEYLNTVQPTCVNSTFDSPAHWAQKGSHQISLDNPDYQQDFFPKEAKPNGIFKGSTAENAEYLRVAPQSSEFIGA
Assay: Ba/F3 cell proliferation (MTS) assay, T790M/L858R
Details: antiproliferative activity
pEC50: −log10 of the molar value.
Measured pEC50, listed per entry for reference.

Completed entries (count: 3):
• O=C1CCC(N2C(=O)c3cccc(NCCOCCC(=O)N4CCN(c5ccc(-c6ccc7c(c6)C(=O)N(C(C(=O)Nc6nccs6)c6cc(F)ccc6O)C7)cc5)CC4)c3C2=O)C(=O)N1 (stereo not drawn) [Compound I-29] = 6.00 to 6.30
• O=C1CCC(N2C(=O)c3cccc(NC4CN(CCOCCOCCOCCN5CCN(c6ccc(-c7ccc8c(c7)C(=O)N(C(C(=O)Nc7nccs7)c7ccccc7)C8)cc6)CC5)C4)c3C2=O)C(=O)N1 (stereo not drawn) [Compound I-16] = 5.30 to 6.00
• O=C1CCC(N2C(=O)c3cccc(NCCOCCOCCOCCN4CCN(c5ccc(-c6ccc7c(c6)C(=O)N(C(C(=O)Nc6nccs6)c6ccccc6O)C7)cn5)CC4)c3C2=O)C(=O)N1 (stereo not drawn) [Compound I-14] = 5.30 to 6.00

Turning now to a further molecule:
**Query** Query (molecule): O=C1CCC(N2C(=O)c3cccc(NCCCCCCCCN4CCN(c5ccc(-c6ccc7c(c6)C(=O)N(C(C(=O)Nc6nccs6)c6cc(F)ccc6O)C7)cc5)CC4)c3C2=O)C(=O)N1 (stereo not drawn) [Compound I-12] ; field requested: pEC50
**Result** 5.30 to 6.00
